Reported values of TGI for individual entries
- Test system: 786-0 renal
- protocolText: NCI tumour cell line growth inhibition, 48 h
Where a SMILES comes first, the peptide text is derived from it. Side-chain parts run from the residue outwards. The star is where a group is joined. Cbz = O=C(OCc1ccccc1)*; Boc = CC(C)(C)OC(=O)*

- compound: "CC(=O)O[C@H]1C[C@](C)(O)[C@@]23CC([C@@H](OC(=O)C(C)(C)O)[C@@H](OC(C)=O)C2(COC(=O)c2ccccc2)[C@H]1OC(C)=O)C(C)(C)O3 (stereo partly specified)"
  TGI: "> 100 µM"
- compound: "O=c1c2c(=NCCN3CCCC3)cc3c(=O)n(CCCN4CCOCC4)c(=O)c4ccc(c(O)n1CCCN1CCOCC1)c2c4-3"
  TGI: "1.1 µM"
- compound: "COc1ccc(C2=NNC(c3cc4cc(Br)ccc4nc3Cl)C2)cc1 (stereo unspecified)"
  TGI: "> 25 µM"
- compound: "CNC(=O)c1cc(Oc2ccc3nc(N[C@@H]4CCCC[C@H]4O)sc3c2)ccn1"
  TGI: "> 100 µM"
- compound: "O=C1/C(=C/c2ccc(Cl)c(Cl)c2)CNC/C1=C\\c1ccc(Cl)c(Cl)c1"
  TGI: "5.53 µM"
- compound: "CCOC1NC(/N=C/c2ccc(OC)cc2)=C(C#N)C1C#N (stereo unspecified)"
  TGI: "> 100 µM"
- compound: "COc1ccc(/C=N\\NC(=O)c2ccc3nc(-c4ccc(Cl)cc4)[nH]c3c2)cc1"
  TGI: "3.67 µM"
- compound: "COc1ccc(/C=C\\c2cc(OC)c(OC)c(OC)c2)cc1OCC(=O)Nc1nc2ccccc2s1"
  TGI: "> 100 µM"
- compound: "CCCCCCCCNC(C)C(O)c1ccc(SC(C)C)cc1 (stereo unspecified)"
  TGI: "3.34 µM"
- compound: "O=C1/C(=C/c2ccc(Cl)cc2)CN(C(=O)CCN2CCC(=NO)CC2)C/C1=C\\c1ccc(Cl)cc1"
  TGI: "2.12 µM"
- compound: "COc1ccc(N=Nc2c(-c3ccccc3)nn(C(=O)CC(=O)Nc3ccccc3Cl)c2-c2ccccc2)cc1"
  TGI: "> 100 µM"
- compound: "Cn1nc2ccc3nccc(NCCNCCO)c3c2n1"
  TGI: "> 100 µM"
- compound: "COc1cc(S(=O)(=O)Nc2ccc(-c3csc(N4C(=O)C(C)SC4c4ccccc4)n3)cc2)ccc1Cl (stereo unspecified)"
  TGI: "> 100 µM"
- compound: "CC(=O)c1[nH]c(Nc2ccc(C)cc2)c(C(=S)Nc2ccccc2)c1N"
  TGI: "34.3 µM"
- compound: "CC1=CC(=O)/C(=C/n2c(=S)[nH]c3cc(C)ccc32)C(=O)O1"
  TGI: "> 100 µM"
- compound: "CCC(C)c1cccc(C)c1NC(=O)C(=O)Cc1nc2ccccc2s1 (stereo unspecified)"
  TGI: "> 100 µM"
- compound: "N#Cc1c(N2CCCC2)nsc1Nc1ccc(F)cc1"
  TGI: "> 100 µM"
- compound: "Nc1c(C(=O)NC23CC4CC(CC(C4)C2)C3)[n+]([O-])c2ccccc2[n+]1[O-]"
  TGI: "> 100 µM"
- compound: "Cc1ccc(NC(=O)/C(=N/NC(=O)C[N+](C)(C)C)c2nc3ccccc3[nH]c2=O)cc1"
  TGI: "> 100 µM"
- compound: "O=C1CCNC(=O)NC1"
  TGI: "> 100 µM"
- compound: "O=c1[nH]nc(Cc2ccc(Cl)cc2)n1/N=C/c1c[nH]c2ccccc12"
  TGI: "> 100 µM"
- compound: "O=C(NN1C(=O)C(Cl)C1c1ccccc1Cl)c1ccccc1O (stereo unspecified)"
  TGI: "> 100 µM"
- compound: "O=C(Cc1csc2nc(-c3ccc(Br)cc3)cn12)N/N=C/c1ccc(Cl)cc1Cl"
  TGI: "73.4 µM"
- compound: "Fc1ccc([C@@H]2CCNC[C@H]2COc2ccc3c(c2)OCO3)cc1"
  TGI: "25.7 µM"
- compound: "CC(=O)OCCOCNC(=S)N/N=C(\\C)c1cccs1"
  TGI: "> 100 µM"
- compound: "CC(C)(C)OC(=O)NC(CCCCNC(=O)CNC(=O)OCc1ccccc1)C(=O)NC(CCCCNC(=O)CNC(=O)OCc1ccccc1)C(=O)NC(CCCCNC(=O)CNC(=O)OCc1ccccc1)C(=O)NC(CCCCNC(=O)CNC(=O)OCc1ccccc1)C(=O)O (stereo unspecified) (Boc-K([Gly-Cbz])K([Gly-Cbz])K([Gly-Cbz])K([Gly-Cbz])-OH; configuration not given here)"
  TGI: "> 100 µM"
